Please go through the items and note down their In vitro penetration rate (apparent flux), prodrug compounds.
# Tested on: human skin tissue
# ASSAY: In vitro penetration rate through human skin, modified Franz cells
# TEST_PARAMETERS: 20% solution in 0.2 M phosphate buffer pH 7.4, human skin, Franz cell
Give just the numeric value; μg/cm^2/h need not be written.

Task: Find the recorded In vitro penetration rate (apparent flux), prodrug compounds belonging to CC(=O)O.CCN(CC)CCOC(=O)C(C)c1c(C)n(C(=O)c2ccc(Cl)cc2)c2ccc(OC)cc12 (stereo not shown) and report it.
Result: 4000

Task: Which In vitro penetration rate (apparent flux), prodrug compounds reading was recorded for the compound CC(=O)O.CCN(CC)CCOC(=O)Cc1cc(C)c(C(=O)c2ccc(Cl)cc2)n1C ?
Result: 1200

Task: Quick one: In vitro penetration rate (apparent flux), prodrug compounds of CC(=O)O.CCN(CC)CCOC(=O)Cc1ccccc1Nc1c(Cl)cccc1Cl ?
Result: 5000

Task: Form field: reported In vitro penetration rate (apparent flux), prodrug compounds of CC(=O)O.CCN(CC)CCOC(=O)c1ccccc1Nc1cccc(C(F)(F)F)c1
Result: 2200

Task: Any idea what its In vitro penetration rate (apparent flux), prodrug compounds is? The compound is CC(=O)O.CCN(CC)CCOC(=O)C(C)c1ccc2c(c1)[nH]c1ccc(Cl)cc12 (stereo not shown)
Result: 4000

Task: What measured In vitro penetration rate (apparent flux), prodrug compounds goes with CC(=O)O.CCN(CC)CCOC(=O)Cc1ccc(C(=O)c2ccc(C)cc2)n1C ?
Result: 1000

Task: // query In vitro penetration rate (apparent flux), prodrug compounds value for entry CC(=O)O.CCN(CC)CCOC(=O)Cc1c(C)n(C(=O)c2ccc(Cl)cc2)c2ccc(OC)cc12
Result: 1100

----------
# ASSAY: Plasma levels after transdermal administration to hairless mice
# Assay type: in vivo
# TEST_PARAMETERS: parent compound administered (time when taken orally)
For each record, write down the corresponding t, time to peak plasma level after parent compound.

Task: Field request: t, time to peak plasma level after parent compound | item: CC(C(=O)O)c1ccc2c(c1)CC(=O)c1ccccc1S2 (stereo not shown) [Zaltoprofen, zaltoprofen, reference compound]
Result: 2 to 4 h

Task: Entry under review: CC(C(=O)O)c1ccc(N2CC=CC2)c(Cl)c1 (stereo not shown) [Pirprofen, pirprofen, reference compound] . Reported t, time to peak plasma level after parent compound?
Result: 2 to 4 h

Task: Look up t, time to peak plasma level after parent compound for this compound: CN1C(C(=O)Nc2ccccn2)=C(O)c2ccccc2S1(=O)=O
Result: 2 to 4 h

Task: So what's the measured t, time to peak plasma level after parent compound for this one? O=C(c1ccccc1)c1ccc2n1CCC2C(=O)O (stereo not shown) [Ketorolac, ketorolac, reference compound]
Result: 2 to 4 h

Task: Requested field: t, time to peak plasma level after parent compound. Item: O=C(O)COc1nn(Cc2ccccc2)c2ccccc12 [Bendazac, bendazac, reference compound]
Result: 1 to 2 h

Task: Which t, time to peak plasma level after parent compound is reported for this compound? Cc1ccc(C(=O)c2ccc(CC(=O)O)n2C)cc1
Result: 1 to 2 h

Task: Given Cc1c(Nc2ncccc2C(=O)O)cccc1C(F)(F)F [Flunixin, flunixin, reference compound] , state its recorded t, time to peak plasma level after parent compound.
Result: 2 to 4 h

Task: Data request, read-out t, time to peak plasma level after parent compound, for O=C(O)C(Cl)c1ccc(C2CCCCC2)c(Cl)c1 (stereo not shown)
Result: 2 to 4 h

Task: What value of measured t, time to peak plasma level after parent compound is listed for CN1C(C(=O)Nc2ccccn2)=C(O)c2sc(Cl)cc2S1(=O)=O [Lornoxicam, lornoxicam, reference compound] ?
Result: 2 to 4 h

Task: What does the record list as t, time to peak plasma level after parent compound for Cc1cccc(Nc2ccccc2C(=O)O)c1C ?
Result: 2 to 4 h

Task: Consider the compound shown here: CC(C(=O)O)c1cccc(Oc2ccccc2)c1 (stereo not shown) [Fenoprofen, 2-(3-phenoxyphenyl) propionic acid, reference compound] What is its recorded t, time to peak plasma level after parent compound?
Result: 1 to 2 h

Task: Record request: t, time to peak plasma level after parent compound value, item O=C(O)c1cccnc1Nc1cccc(C(F)(F)F)c1
Result: 2 to 4 h

Task: Can you share its t, time to peak plasma level after parent compound? I mean this compound: CCc1cccc2c3c([nH]c12)C(CC)(CC(=O)O)OCC3 (stereo not shown)
Result: 1 to 2 h

Task: So what does the record say about t, time to peak plasma level after parent compound for CC(C(=O)O)c1ccc(-c2ccccc2)c(F)c1 (stereo not shown) [Flurbiprofen, flurbiprofen, reference compound] ?
Result: 2 to 4 h

Task: Could you share which t, time to peak plasma level after parent compound value was measured for O=C(O)CCC(=O)c1ccc(-c2ccccc2)cc1 [Fenbufen, fenbufen, reference compound] ?
Result: 2 to 4 h

Task: Return reported t, time to peak plasma level after parent compound; argument: COc1ccc2c(c1)c(CC(=O)OCC(=O)O)c(C)n2C(=O)c1ccc(Cl)cc1
Result: 1 to 2 h

----------
# System: mice
# ASSAY: Analgesic activity, acetic acid writhing
# Assay type: in vivo
# TEST_PARAMETERS: 100 mg/kg transdermally, 30 min before acetic acid
Kindly supply the reported No. of Writhing values for the records listed here.
Just the number, please, no unit attached.

Task: What does the data say about its No. of Writhing? Entry: CC(=O)O.CCN(CC)CCOC(=O)c1ccccc1OC(=O)c1ccccc1O [diethylaminoethyl salicylsalicylate.AcOH]
Result: 12.0

Task: Can you share its No. of Writhing? I mean this compound: CC(=O)O.CCN(CC)CCOC(=O)Cc1cccc(C(=O)c2ccc(Br)cc2)c1N
Result: 13.2

Task: Name the reported No. of Writhing value associated with the compound CC(=O)O.CCN(CC)CCOC(=O)C(C)c1ccc(C(=O)c2cccs2)cc1 (stereo not drawn)
Result: 15.7

Task: Looking for the measured No. of Writhing of CC(=O)O.CCN(CC)CCOC(=O)C(C)c1ccc(C(=O)c2ccccc2)s1 (stereo not drawn) , can you help?
Result: 13.2

Task: Which No. of Writhing value belongs to C=C(C)CNc1ccc(C(C)C(=O)OCCN(CC)CC)cc1.CC(=O)O (stereo not drawn) ?
Result: 15.6

Task: Can you share its No. of Writhing? I mean this compound: CC(=O)O.CCN(CC)CCOC(=O)C(C)c1c(C)n(C(=O)c2ccc(Cl)cc2)c2ccc(OC)cc12 (stereo not drawn)
Result: 13.8

Task: Entry CC(=O)O.CCN(CC)CCOC(=O)C(C)c1ccc(CC2CCCC2=O)cc1 (stereo not drawn) : reported No. of Writhing = ?
Result: 15.7

Task: Which value of No. of Writhing has been reported for CC(=O)O.CCN(CC)CCOC(=O)COC(=O)Cc1c(C)n(C(=O)c2ccc(Cl)cc2)c2ccc(OC)cc12 in the records?
Result: 15.6

Task: Quick check: No. of Writhing of CC(=O)O.CCN(CC)CCOC(=O)C(C)c1ccc2c(c1)[nH]c1ccc(Cl)cc12 (stereo not drawn) ?
Result: 14.2

----------
# ASSAY: Plasma levels after transdermal administration to hairless mice
# Type: in vivo
# TEST_PARAMETERS: parent compound administered, hairless mice
# Description: Tested compounds (20% solution or suspension in 1 mL isopropanol) are administered transdermally to the skin of intact hairless mice. The plasma levels of the parent compounds are determined by HPLC.
I'd be grateful if you could share measured Peak plasma concentration after parent compound for these entries.

Task: Fill in the blank: the reported Peak plasma concentration after parent compound of O=C(O)C1CCc2cc(C3CCCCC3)c(Cl)cc21 (stereo not shown) [Clidanac, clidanac] is ____.
Result: 10 mg/L

Task: Would you mind telling me what Peak plasma concentration after parent compound value was observed for CC1=C(CC(=O)O)c2cc(F)ccc2/C1=C\c1ccc([S+](C)[O-])cc1 (stereo not shown) [Sulindac, sulindac, reference compound] ?
Result: 0.1 mg/L

Task: Would you mind telling me what Peak plasma concentration after parent compound value was observed for CC(C(=O)O)c1ccc2oc(-c3ccc(Cl)cc3)nc2c1 (stereo not shown) [Benoxaprofen, benoxaprofen] ?
Result: 10 mg/L

Task: // query Peak plasma concentration after parent compound value for entry COc1ccc2c(c1)c(CC(=O)O)c(C)n2C(=O)c1ccc(Cl)cc1 [Indomethacin, indomethacin]
Result: 0.1 mg/L

----------
# System: rat;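 note: acute toxicity in rats expressed as LD50, determined for both prodrugs and their parent compounds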
# TEST_PARAMETERS: rats
Classify: 1 when LD50 of HPP is strictly less than 1000 mg/kg; -1 when LD50 of HPP is not.

Task: hey, is LD50 of HPP for CC(=O)O.CCN(CC)CCOC(=O)C(C)c1ccc2cc(OC)ccc2c1 (stereo not drawn) lower than 1000 mg/kg or not?
Result: -1

Task: Please indicate whether the reported LD50 of HPP of CC(=O)O.CCN(CC)CCOC(=O)c1cccnc1Nc1cccc(C(F)(F)F)c1 is strictly below 1000 mg/kg.
Result: 1

Task: Please state whether LD50 of HPP is below 1000 mg/kg for CC(=O)O.CC(C)Cc1ccc(C(C)C(=O)OCCN(C)C)cc1 (stereo not drawn)
Result: -1

Task: Consider CC(=O)O.CCN(CC)CCOC(=O)C(C)c1ccc2c(c1)[nH]c1ccc(Cl)cc12 (stereo not drawn) . Does its LD50 of HPP lie strictly below 1000 mg/kg?
Result: 1

Task: Problem: For the compound CC(=O)O.CCN(CC)CCOC(=O)Cc1ccccc1Oc1ccc(Cl)cc1Cl , is LD50 of HPP under 1000 mg/kg?
Result: 1

Task: Is the reported LD50 of HPP for CC(=O)O.CCN(CC)CCOC(=O)Cc1sc(-c2ccccc2)nc1-c1ccc(Cl)cc1 strictly below 1000 mg/kg?
Result: -1

Task: Just wondering, is LD50 of HPP of CC(=O)O.CCN(CC)CCOC(=O)Cc1c(C)n(C(=O)c2ccc(Cl)cc2)c2ccc(OC)cc12 below 1000 mg/kg?
Result: 1

Task: Below 1000 mg/kg on LD50 of HPP? Entry CCN(CC)CCOC(=O)c1ccccc1OC(C)=O [diethylaminoethyl acetylsalicylate.AcOH]
Result: -1
